Cited source for all entries: ChEMBL document CHEMBL1157785

test.details: Apparent permeability across human Caco-2 cell membrane at 10 uM after 120 mins by LC-MS/MS analysis
Type: ADME, cell-based
recorded.metric: Papp at 2 h, 10 µM (×10⁻⁶ cm/s)

>>> df
                                   molecule  value_observed
0  Cn1nc(C(N)=O)c2c1-c1nc(Nc3ccccc3)ncc1CC2            58.3
1  Cn1nc(C(=O)O)c2c1-c1nc(Nc3ccccc3)ncc1CC2             2.7

---

test.details: Solubility at pH 7 after 24 hrs by LC-MS/MS analysis
Format: physicochemical
test.parameters: buffer
# solubility at 24 h values compiled below
recorded.metric: solubility at 24 h (µM)

                                   molecule     recorded_metric  sign  value_observed
0  Cn1nc(C(N)=O)c2c1-c1nc(Nc3ccccc3S(N)(=O)=O)ncc1CC2  solubility at 24 h     =               4
1  Cn1nc(C(N)=O)c2c1-c1nc(Nc3ccccc3-c3ccccc3)ncc1CC2  solubility at 24 h     <               1
2  Cn1nc(C(N)=O)c2c1-c1nc(Nc3ccccc3C(F)(F)F)ncc1CC2  solubility at 24 h     =               4
3  Cc1ccccc1Nc1ncc2c(n1)-c1c(c(C(N)=O)nn1C)CC2  solubility at 24 h     =               3
4  COc1cc(N2CCN(C)CC2)ccc1Nc1ncc2c(n1)-c1c(c(C(N)=O)nn1C)CC2  solubility at 24 h     >             225

---

This listing pairs compounds with measured log10 solubility at 24 h.
test.details: Solubility at pH 7 after 24 hrs by LC-MS/MS analysis
Assay type: physicochemical
test.parameters: buffer
recorded.metric: log10 solubility at 24 h (log10 of the value in µM)

>>> df
                                    molecule           recorded_metric  value_observed
 0  COc1ccccc1Nc1ncc2c(n1)-c1c(c(C(N)=O)nn1C)CC2  log10 solubility at 24 h            0.48
 1  CC(=O)c1cc(N2CCN(C)CC2)ccc1Nc1ncc2c(n1)-c1c(c(C(N)=O)nn1C)CC2  log10 solubility at 24 h            1.92
 2  CC(=O)c1ccccc1Nc1ncc2c(n1)-c1c(c(C(N)=O)nn1C)CC2  log10 solubility at 24 h            0.30
 3  CC(=O)c1c(Nc2ncc3c(n2)-c2c(c(C(N)=O)nn2C)CC3)cccc1N1CCN(C)CC1  log10 solubility at 24 h            2.23
 4  CC(=O)c1ccc(N2CCN(C)CC2)cc1Nc1ncc2c(n1)-c1c(c(C(N)=O)nn1C)CC2  log10 solubility at 24 h            1.26
 5  Cn1nc(C(N)=O)c2c1-c1nc(Nc3ccccc3N)ncc1CC2  log10 solubility at 24 h            2.28
 6  COC(=O)c1ccccc1Nc1ncc2c(n1)-c1c(c(C(N)=O)nn1C)CC2  log10 solubility at 24 h            0.30
 7  Cn1nc(C(N)=O)c2c1-c1nc(Nc3ccccc3F)ncc1CC2  log10 solubility at 24 h            0.48
 8  CC(=O)Nc1ccccc1Nc1ncc2c(n1)-c1c(c(C(N)=O)nn1C)CC2  log10 solubility at 24 h            1.20
 9  Cn1nc(C(N)=O)c2c1-c1nc(Nc3ccccc3)ncc1CC2  log10 solubility at 24 h            0.48
10  CSc1ccccc1Nc1ncc2c(n1)-c1c(c(C(N)=O)nn1C)CC2  log10 solubility at 24 h            0.30
11  CNc1ccccc1Nc1ncc2c(n1)-c1c(c(C(N)=O)nn1C)CC2  log10 solubility at 24 h            1.36
12  CC(C)c1ccccc1Nc1ncc2c(n1)-c1c(c(C(N)=O)nn1C)CC2  log10 solubility at 24 h            0.30
